test.name: Parallel artificial membrane permeability assay (PAMPA)
Assay type: in vitro ADME
study.conditions: PAMPA, S1 Data; read-out: PAMPA Pe
observable: Papp at 5 h, 10 μM (×10⁻⁶ cm/s)
Report the figure in ×10⁻⁶ cm/s without appending any unit label.

Req: Specify measured Papp at 5 h, 10 μM for Cn1nccc1C(=O)Nc1nc2cncnc2n1CC(F)(F)F .
Resp: 13.6

Req: Specify measured Papp at 5 h, 10 μM for CCn1c(NC(=O)Cc2ccc(F)cc2)nc2ccc(F)cc21 .
Resp: 19.4

Req: Specify measured Papp at 5 h, 10 μM for Cn1nccc1C(=O)Nc1nc2ccc(C#N)cc2n1CC(F)(F)F .
Resp: 27.9
